Where do the numbers come from? From patent US20220025021A1.

Biological target: HIV-1 Env of pseudovirus BB1012-11.TC21 (HIV-1)
Assay: cell-based or functional assay
The reader will find reported neutralization IC50 values listed item by item below.

BINDER | neutralization IC50 (µg/mL)
MS-89 (antibody, V domains shown) VH: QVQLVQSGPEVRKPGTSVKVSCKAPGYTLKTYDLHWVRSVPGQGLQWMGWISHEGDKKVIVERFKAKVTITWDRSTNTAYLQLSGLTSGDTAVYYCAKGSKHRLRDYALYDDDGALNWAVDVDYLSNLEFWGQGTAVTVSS VL: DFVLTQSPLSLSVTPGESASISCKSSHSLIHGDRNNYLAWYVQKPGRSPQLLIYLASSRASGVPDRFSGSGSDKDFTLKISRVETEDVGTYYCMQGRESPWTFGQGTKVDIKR | 0.032
MS-83 (antibody, V domains shown) VH: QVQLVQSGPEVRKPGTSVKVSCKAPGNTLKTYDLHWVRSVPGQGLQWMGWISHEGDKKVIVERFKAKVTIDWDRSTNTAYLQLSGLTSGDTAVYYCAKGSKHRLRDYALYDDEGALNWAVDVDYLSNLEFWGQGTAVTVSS VL: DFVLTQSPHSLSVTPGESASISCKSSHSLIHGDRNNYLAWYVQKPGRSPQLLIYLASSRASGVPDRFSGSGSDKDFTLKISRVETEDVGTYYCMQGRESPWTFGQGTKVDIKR | 0.018
MS-88 (antibody, V domains shown) VH: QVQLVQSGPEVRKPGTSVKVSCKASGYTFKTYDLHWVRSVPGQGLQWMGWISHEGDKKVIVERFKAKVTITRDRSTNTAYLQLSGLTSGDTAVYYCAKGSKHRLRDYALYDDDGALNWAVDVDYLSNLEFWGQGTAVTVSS VL: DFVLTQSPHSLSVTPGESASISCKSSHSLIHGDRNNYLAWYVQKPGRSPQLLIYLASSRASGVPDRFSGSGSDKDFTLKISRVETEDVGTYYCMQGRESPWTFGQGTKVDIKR | 0.02
MS-78 (antibody, V domains shown) VH: QVQLVQSGPEVRKPGTSVKVSCKAPGNTLKTYDLHWVRSVPGQGLEWMGWISHEGDKKVIVERFKAKVTIDWDRSTNTAYLQLSGLTSGDTAVYYCAKGSKHRLRDYALYDDDGALNWAVDVDYLSNLEFWGQGTAVTVSS VL: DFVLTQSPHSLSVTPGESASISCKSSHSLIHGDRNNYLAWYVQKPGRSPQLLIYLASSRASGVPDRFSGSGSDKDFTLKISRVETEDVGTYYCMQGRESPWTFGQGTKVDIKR | 0.024
MS-74 (antibody, V domains shown) VH: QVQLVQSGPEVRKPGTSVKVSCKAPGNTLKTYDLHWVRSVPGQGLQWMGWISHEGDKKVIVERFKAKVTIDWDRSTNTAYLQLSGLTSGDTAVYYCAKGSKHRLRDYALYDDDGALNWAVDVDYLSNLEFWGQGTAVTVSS VL: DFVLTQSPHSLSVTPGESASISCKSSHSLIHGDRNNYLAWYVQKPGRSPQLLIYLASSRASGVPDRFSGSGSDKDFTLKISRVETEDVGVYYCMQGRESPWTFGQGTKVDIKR | 0.021
